The reported numbers originate from patent US20210330611A1.

Tested on: primary rat microglia
Settings: rat
Where a name gives a salt, the structure may show the parent alone.
LPS % cell toxicity reference

Check out these entries, answers already filled in.
[
  {
    "compound": "COc1ccc(CC(C)NCC(O)c2ccc(O)c(NC=O)c2)cc1 (stereo not shown) [Formoterol]",
    "measured-quantity": "LPS % cell toxicity",
    "reported-value": "1%"
  },
  {
    "compound": "O=NN(CCCl)C(=O)NCCCl [Carmustine]",
    "measured-quantity": "LPS % cell toxicity",
    "reported-value": "0%"
  },
  {
    "compound": "O=C(Nc1ccc(C(=O)O)c(O)c1)c1ccccc1 [Benzoylpas]",
    "measured-quantity": "LPS % cell toxicity",
    "reported-value": "2%"
  }
]

Exam item: Quote LPS % cell toxicity reported for CC(=O)NCCCCCC(=O)O [Acexamic Acid] please.
Marked response: 0%

Exam item: Quote LPS % cell toxicity reported for N=c1ccn2c(n1)O[C@H]1[C@H](O)[C@@H](CO)O[C@H]12 [Ancitabine Hydrochloride] please.
Marked response: 1%

Exam item: Quote LPS % cell toxicity reported for c1ccc(-c2ccc(C(c3ccccc3)n3ccnc3)cc2)cc1 (stereo not shown) [Bifonazole] please.
Marked response: 0%

---

Fibrin % cell toxicity reference
System: primary rat microglia
Settings: rat
A number alone suffices; assume %.

Check out these entries, answers already filled in.
[
  {
    "compound": "C#C[C@]1(O)CC[C@H]2[C@@H]3CCc4cc(O)ccc4[C@H]3CC[C@@]21C [Ethinyl estradiol, reference compound]",
    "system-tested": "primary rat microglia",
    "Fibrin % cell toxicity (%)": 1
  },
  {
    "compound": "CN(C)C(=S)SSC(=S)N(C)C",
    "system-tested": "primary rat microglia",
    "Fibrin % cell toxicity (%)": 91
  }
]

Exam item: Quote Fibrin % cell toxicity reported for O=c1[nH]c(=O)n([C@H]2C[C@H](O)[C@@H](CO)O2)cc1C(F)(F)F please.
Marked response: 1

Exam item: Quote Fibrin % cell toxicity reported for NC(CO)C(=O)NNCc1ccc(O)c(O)c1O (stereo not drawn) [Benserazide] please.
Marked response: 0

---

inhibition at 10 µM reference
System: fibrin-induced microglia activation
Assay: Image-based assay of fibrin-induced microglia activation (HTS and dose response)
Assay type: cell-based, rat
Settings: Rattus norvegicus, Microglia, primary microglia HTS, fibrin stimulation, compounds at 10 μM; read-out: Fibrin % inhibition
Structures can show the parent of a compound that is named as a salt.
A number alone suffices; assume %.

Check out these entries, answers already filled in.
[
  {
    "compound": "N=c1ccn2c(n1)O[C@H]1[C@H](O)[C@@H](CO)O[C@H]12 [Ancitabine Hydrochloride]",
    "inhibition at 10 µM / %": -4
  },
  {
    "compound": "COC(=O)/C=C/C(=O)OC [Dimethyl Fumarate]",
    "inhibition at 10 µM / %": 4
  },
  {
    "compound": "O=C(O)CCC(=O)c1ccc(-c2ccccc2)cc1",
    "inhibition at 10 µM / %": 3
  }
]

Exam item: Report inhibition at 10 µM under test system fibrin-induced microglia activation for COc1ccc(Cc2cnc(N)nc2N)cc1OC .
Marked response: -8

Exam item: Report inhibition at 10 µM under test system fibrin-induced microglia activation for CCCCC[C@H](O)/C=C/[C@@H]1[C@@H](C/C=C\CCCC(=O)O)[C@@H](O)C[C@H]1O .
Marked response: 36

Exam item: Report inhibition at 10 µM under test system fibrin-induced microglia activation for CC(N)C12CC3CC(CC(C3)C1)C2 (centres unmarked) .
Marked response: 106

Exam item: Report inhibition at 10 µM under test system fibrin-induced microglia activation for Nc1ccc(S(=O)(=O)c2ccc(N)cc2)cc1 .
Marked response: -23

Exam item: Report inhibition at 10 µM under test system fibrin-induced microglia activation for Nc1nc2c(ncn2COCCO)c(=O)[nH]1 .
Marked response: -20

Exam item: Report inhibition at 10 µM under test system fibrin-induced microglia activation for C#C[C@]1(O)CC[C@H]2[C@@H]3CCC4=Cc5oncc5C[C@]4(C)[C@H]3CC[C@@]21C .
Marked response: -14

---

Tested on: LPS-induced microglia activation
Assay: Image-based assay of LPS-induced microglia activation (HTS and dose response)
Assay type: cell-based, rat
Settings: Rattus norvegicus, Microglia, 48 h, primary microglia HTS, LPS stimulation; increased cell size (>800 μm^2) as marker of activation; read-out: LPS % inhibition
Structures can show the parent of a compound that is named as a salt.
Assign class by inhibition at 10 µM: not lower than 10% means Criterion met; lower than 10% means Criterion not met.

[
  {
    "molecule": "CCCCCCCCCCCCCCCCOP(=O)([O-])OCC[N+](C)(C)C [Miltefosine]",
    "classification": "Criterion met"
  }
]

Exam item: Entry CC(C)(CO)C(O)C(=O)NCCCO (stereo not drawn) [Panthenol] : is its inhibition at 10 µM no less than 10%?
Marked response: Criterion not met

Exam item: Entry COc1ccc2c(c1OC)C(=O)O[C@@H]2[C@H]1c2c(cc3c(c2OC)OCO3)CCN1C [Noscapine Hydrochloride] : is its inhibition at 10 µM no less than 10%?
Marked response: Criterion met

Exam item: Entry CC(C)(CO)[C@@H](O)C(=O)NCCC(=O)O [Pantothenic Acid] : is its inhibition at 10 µM no less than 10%?
Marked response: Criterion not met

Exam item: Entry Cc1nc(Nc2ncc(C(=O)Nc3c(C)cccc3Cl)s2)cc(N2CCN(CCO)CC2)n1 [Dasatinib] : is its inhibition at 10 µM no less than 10%?
Marked response: Criterion met

---

Test system: primary rat microglia
Test: Cell toxicity (dead cells, size <150 μm2) in coated fibrin (cFib) assay;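 note: share of dead cells sized under 150 µm2 at 10 µM in fibrin-stimulated microglia HTS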
Conditions: primary HTS, 10 μM, fibrin assay, dead cells size <150 μm2
Where a name gives a salt, the structure may show the parent alone.
Fibrin % cell toxicity reference
A number alone suffices; assume %.

[
  {
    "molecule": "CC(C)/N=c1\\cc2n(-c3ccc(Cl)cc3)c3ccccc3nc-2cc1Nc1ccc(Cl)cc1",
    "Fibrin % cell toxicity [%]": 1
  }
]

Exam item: Quote Fibrin % cell toxicity reported for O=C(O)c1cc(-c2ccccc2)nc2ccccc12 please.
Marked response: 1

Exam item: Quote Fibrin % cell toxicity reported for CO/N=C(\C(=O)N[C@@H]1C(=O)N2C(C(=O)O)=C(C[N+]3(C)CCCC3)CS[C@H]12)c1csc(N)n1 [Cefepime Hydrochloride] please.
Marked response: 1

---

Test system: primary rat microglia
Assay: Cell toxicity (dead cells, size <150 μm2) in coated fibrin (cFib) assay;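 note: share of dead cells sized under 150 µm2 at 10 µM in fibrin-stimulated microglia HTS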
Details: primary microglia HTS, fibrin assay, dead cells (size <150 μm2)
Where a name gives a salt, the structure may show the parent alone.
Fibrin % cell toxicity reference
A number alone suffices; assume %.

[
  {
    "compound": "CCN(CC)CCOC(=O)C(c1ccccc1)c1ccccc1 [Adiphenine Hydrochloride]",
    "measured-quantity": "Fibrin % cell toxicity",
    "reported-value": 1
  },
  {
    "compound": "CC(N)C12CC3CC(CC(C3)C1)C2 (stereo not drawn) [Rimantadine]",
    "measured-quantity": "Fibrin % cell toxicity",
    "reported-value": 93
  }
]

Read the next record carefully.
Exam item: Quote Fibrin % cell toxicity reported for O=C1C(O)=C([C@H]2CC[C@H](c3ccc(Cl)cc3)CC2)C(=O)c2ccccc21 [Atovaquone] please.
Marked response: 0

---

Test system: fibrin-induced microglia activation
Assay: Image-based assay of fibrin-induced microglia activation (HTS and dose response)
Type: cell-based, rat
Conditions: Rattus norvegicus, Microglia, fibrin-induced microglia activation, dose response; read-out: Fibrin IC50 (uM) (Suppl. Table 7)
IC50 reference

Check out these entries, answers already filled in.
[
  {
    "compound": "CN1CCN2c3ncccc3Cc3ccccc3C2C1 (stereo not shown) [Mirtazapine, reference compound]",
    "system-tested": "fibrin-induced microglia activation",
    "reported-value": "> 20 µM"
  },
  {
    "compound": "C#C[C@]1(O)CC[C@H]2[C@@H]3CCc4cc(O)ccc4[C@H]3CC[C@@]21C [Ethinyl estradiol, reference compound]",
    "system-tested": "fibrin-induced microglia activation",
    "reported-value": "> 20 µM"
  },
  {
    "compound": "OCc1ccccc1O[C@@H]1O[C@H](CO)[C@@H](O)[C@H](O)[C@H]1O [Salicin, reference compound]",
    "system-tested": "fibrin-induced microglia activation",
    "reported-value": "> 20 µM"
  }
]

Read the next record carefully.
Exam item: Report IC50 under test system fibrin-induced microglia activation for CC(=O)OCC(=O)[C@@]1(O)CC[C@H]2[C@@H]3CCC4=CC(=O)CC[C@]4(C)[C@@]3(F)[C@@H](O)C[C@@]21C [Fludrocortisone acetate, reference compound] .
Marked response: < 0.001 µM

---

LPS % cell toxicity reference
System: primary rat microglia
Conditions: rat
Counter-ions that a name gives are not always drawn.
A number alone suffices; assume %.

Check out these entries, answers already filled in.
[
  {
    "compound": "CC(Cc1ccccc1)(NC(=O)CN)c1ccccc1 (stereo not shown) [Remacemide Hydrochloride]",
    "LPS % cell toxicity (%)": 0
  },
  {
    "compound": "COc1ccc(-c2ccc3cc(C(=O)O)ccc3c2)cc1C12CC3CC(CC(C3)C1)C2",
    "LPS % cell toxicity (%)": 4
  },
  {
    "compound": "CC(C)Cc1ccc([C@H](C)C(=O)O)cc1",
    "LPS % cell toxicity (%)": 0
  },
  {
    "compound": "NC(=O)C[S@@+]([O-])C(c1ccccc1)c1ccccc1",
    "LPS % cell toxicity (%)": 1
  },
  {
    "compound": "Nc1nc(Cl)nc2c1ncn2[C@H]1C[C@H](O)[C@@H](CO)O1",
    "LPS % cell toxicity (%)": 0
  }
]

Exam item: Report LPS % cell toxicity under test system primary rat microglia for O=c1[nH]c2ccccc2n1C1CCN(CCCC(c2ccc(F)cc2)c2ccc(F)cc2)CC1 [Pimozide, reference compound] .
Marked response: 0

Exam item: Report LPS % cell toxicity under test system primary rat microglia for CC1(C)C[C@@H]1C(=O)N/C(=C\CCCCSC[C@H](N)C(=O)O)C(=O)O .
Marked response: 0

Exam item: Report LPS % cell toxicity under test system primary rat microglia for COc1ccc2c(c1)c(CC(=O)OCC(=O)O)c(C)n2C(=O)c1ccc(Cl)cc1 .
Marked response: 0

Exam item: Report LPS % cell toxicity under test system primary rat microglia for O=c1c2ccccc2[se]n1-c1ccccc1 .
Marked response: 0

Exam item: Report LPS % cell toxicity under test system primary rat microglia for Cc1ccc(-c2cc(C(F)(F)F)nn2-c2ccc(S(N)(=O)=O)cc2)cc1 .
Marked response: 0
